# Tested on: CCRF-CEM leukemia
# ASSAY REMARKS: NCI-60 one-dose screen, 48 h (100 = growth as untreated, 0 = no growth, -100 = all killed)
# CONDITIONS USED: 10 µM unless noted
Compounds without any hit were thinned out: in the full panel of roughly 83,000, 20% have a hit.
Values of growth greater than or equal to 70% map to condition met; values below map to condition not met.

CCCCCCCCCCCC[n+]1ccccc1 ... condition not met
COc1cccc2cc(-c3nc(C4CCC(C(=O)O)CC4)n4ncnc(N)c34)[nH]c12 (centres undefined) ... condition not met
N#Cc1c(-c2ccc(C(F)(F)F)cc2)cc(NCC2CCS(=O)(=O)CC2)n2c1nc1ccccc12 ... condition met
COc1cc2ncnc(Nc3cccc(Cl)c3F)c2cc1OC(=O)N1CCN(C)C[C@H]1C ... condition met
Cc1cc(Nc2cc(N3CCN(C)CC3)nc(Sc3ccc(NC(=O)C4CC4)cc3)n2)n[nH]1 ... condition not met
COc1ccc(-c2cnc(-c3ccc(Cl)cc3)[nH]2)cc1OC ... condition not met
CN1CCN(c2nc(C3=C(c4c[nH]c5ccccc45)C(=O)NC3=O)c3ccccc3n2)CC1 ... condition met
Cc1cc(C)n(CC(=O)Nc2ccc(-c3nc4ccccc4s3)cc2)n1 ... condition met
CCCCCCCC(=O)SCC/C=C/[C@@H]1CC(=O)NCc2cc(ccn2)C2=N[C@@](C)(CS2)C(=O)N[C@@H](C(C)C)C(=O)O1 ... condition not met

These measurements were taken from PubChem BioAssay (NCI).
